Each recorded value in this set is attributed to patent US20200165344A1.

SYSTEM: T1, recombinant human NKG2D-Fc (human, UniProt P26718 73-216)
T1 construct: extracellular domain; also called human NKG2D-Fc fusion protein; NKG2D-Fc-biotin; not shown: human IgG1 Fc domain
T1 sequence (looked up): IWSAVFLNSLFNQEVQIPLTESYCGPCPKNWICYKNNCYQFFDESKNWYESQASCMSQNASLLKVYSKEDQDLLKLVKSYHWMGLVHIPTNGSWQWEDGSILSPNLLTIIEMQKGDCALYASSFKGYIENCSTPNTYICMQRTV
ASSAY_EXPLANATION: ELISA, NKG2D-Fc coated

{"BINDER": "ADI-29447 (antibody, V domains shown, also called F47) VH: QVQLQQWGAGLLKPSETLSLTCAVYGGSFSGYYWSWIRQPPGKGLEWIGEIDHSGSTNYNPSLKSRVTISVDTSKNQFSLKLSSVTAADTAVYYCARARGPWSFDPWGQGTLVTVSS VL: DIQMTQSPSTLSASVGDRVTITCRASQSISSWLAWYQQKPGKAPKLLIYKASSLESGVPSRFSGSGSGTEFTLTISSLQPDDFATYYCQQYDTFITFGGGTKVEIK", "binding result": "binds"}
{"BINDER": "ADI-29426 (antibody, V domains shown) VH: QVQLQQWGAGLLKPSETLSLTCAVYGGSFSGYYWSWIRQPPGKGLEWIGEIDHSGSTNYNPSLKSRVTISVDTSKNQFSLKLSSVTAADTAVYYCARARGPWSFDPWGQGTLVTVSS VL: DIQMTQSPSTLSASVGDRVTITCRASQSIGSWLAWYQQKPGKAPKLLIYKASSLESGVPSRFSGSGSGTEFTLTISSLQPDDFATYYCQQYHSFPTFGGGTKVEIK", "binding result": "binds"}
